Tested on: SRD5A2 (gene 6716)
Assay Method Text: CCTE_Deisenroth_5AR_NBTE_ratio: CCTE's 5alpha-reductase NanoBRET Target Engagement Assay - Ratio, Deisenroth Lab (AID 2284322)
Condition Label: actives raise or lower the signal
Experimental: CCTE_Deisenroth_5AR NBTE (5alpha-reductase NanoBRET Target Engagement Assay) is a cell-based, single-readout assay that uses HEK293T, a human kidney cell line, with measurements taken at 5 hours after chemical dosing in a 384 well plate. This assay includes a primary and secondary screen as well as an autofluorscence screen.CCTE_Deisenroth_5AR NBTE_ratio is one of four assay components calculated from the CCTE_Deisenroth_5AR NBTE assay. […]
Calls of active or inactive are those of the source. Rule for the calls: active = hit-call score of the fitted dose curve at least 0.9, where 1 is the maximum; inactive = score below 0.9.
Your answer must be one of the following: active, inactive

Reference set, count: 3
1) CC[C@H]1OC(=O)[C@H](C)[C@@H](O[C@H]2C[C@@](C)(OC)[C@@H](O)[C@H](C)O2)[C@H](C)[C@@H](O[C@@H]2O[C@H](C)C[C@H](N(C)C)[C@H]2O)[C@](C)(O)C[C@@H](C)C(=O)[C@H](C)[C@@H](O)[C@]1(C)O ... inactive
2) CN(C)c1ccc(N=NS(=O)(=O)O)cc1 ... active
3) CCC(C)(C)C(=O)O[C@H]1C[C@@H](C)C=C2C=C[C@H](C)[C@H](CC[C@@H]3C[C@@H](O)CC(=O)O3)[C@H]21 ... inactive

Proceed to the following item.
Inquiry: I'd appreciate the recorded outcome for O=C(O)c1cc(N=Nc2ccc(S(=O)(=O)Nc3ccccn3)cc2)ccc1O from this test.
Reply text: active
